This section presents compounds with their documented inhibition values.
# target-or-system: Beta-3 adrenergic receptor (Homo sapiens, UniProt P13945)
# Sequence (P13945 whole entry, looked up): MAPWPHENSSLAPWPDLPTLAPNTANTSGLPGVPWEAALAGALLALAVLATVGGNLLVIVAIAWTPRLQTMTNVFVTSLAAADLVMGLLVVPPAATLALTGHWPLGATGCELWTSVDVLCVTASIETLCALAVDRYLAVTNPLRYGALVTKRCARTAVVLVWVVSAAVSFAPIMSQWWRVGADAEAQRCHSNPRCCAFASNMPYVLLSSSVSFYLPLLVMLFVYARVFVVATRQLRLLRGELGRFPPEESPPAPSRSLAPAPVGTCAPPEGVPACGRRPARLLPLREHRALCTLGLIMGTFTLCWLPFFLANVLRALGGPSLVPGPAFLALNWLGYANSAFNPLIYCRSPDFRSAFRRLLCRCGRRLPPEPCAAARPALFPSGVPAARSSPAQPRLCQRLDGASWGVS
# method-notes: Displacement of [125I]iodocyanopindolol from human adrenergic beta-3 receptor at 1 uM
Answer format: numeric, % implied, no suffix.

# example entries with known answers
COc1ccc(CCNCC(O)COc2ccc3c(c2)CCCN3Cc2ccccc2)cc1OC (stereo not given)
72.8
CC1CN(c2ccc(Cl)cc2)CCN1CC(O)COc1ccc2c(c1)CCCN2Cc1ccccc1 (stereo not given)
3.61
CN1CCN(CC(O)COc2ccc3c(c2)CCCN3Cc2ccccc2)CC1 (stereo not given)
-3.71
Cc1ccc(CCNCC(O)COc2ccc3c(c2)CCCN3Cc2ccccc2)cc1 (stereo not given)
8.17

## Input // returns reported inhibition for input Clc1ccc(CCNCCCOc2ccc3c(c2)CCCN3Cc2ccccc2)cc1
## Output 42.9
